- TESTED_SYSTEM: T1, Bud14, P27637
- T1 sequence (P27637 247-328, looked up): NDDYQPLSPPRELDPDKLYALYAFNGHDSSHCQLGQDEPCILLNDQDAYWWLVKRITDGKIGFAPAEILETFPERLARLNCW
- PROCEDURE_TEXT: SPOT array
- EXPERIMENTAL_CONTEXT: median of control spots 956
QUANTITY: SPOT intensity

QPQRTAPKPPISAPR :: 2

1 = VAPPPLPNRQLPNLD
2 = RTIRKLPLMSLSEYF
Which entry shows the lesser value of SPOT intensity here, 1 or 2 ? State your choice using its label. 1
(1: 0, 2: 6)

a = AATTSTPPLPRRRAT
b = NNFYRPLLRSVLVLL
c = ALRRRLPVTRSKINW
Rank descending by SPOT intensity. Answer format: the labels, in the requested order. b, c, a
(b: 14, c: 6, a: 1)

P = NNQRRKPLLLNIGDH
Q = PSPSSSPPPIPKTAN
R = HHKRRPTTIDVPGLT
S = PALPSLPPPPLLNVD
Rank descending by SPOT intensity. Answer format: the labels, in the requested order. P, R, S, Q
